These measurements were taken from patent US9645128B2.

target-system: 19 kDa protein of Oplophorus luciferase (Oplophorus gracilirostris, UniProt Q9GV45)
Construct: made in house
Sequence (Q9GV45 28-196): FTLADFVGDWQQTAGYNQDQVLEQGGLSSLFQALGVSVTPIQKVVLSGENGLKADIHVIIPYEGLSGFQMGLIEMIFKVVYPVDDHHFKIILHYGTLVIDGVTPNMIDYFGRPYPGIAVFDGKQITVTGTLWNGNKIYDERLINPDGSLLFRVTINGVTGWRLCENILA
measurement-notes: Substrate specificity, luminescence activity and emission spectra of the 19 kDa protein of Oplophorus luciferase
Type: biochemical, Oplophorus gracilorostris
run-conditions: Oplophorus luciferase, emission integrated for 10 seconds; coelenterazine = 100.0
value-type: Luminescence capacity 10 secs. (%)
State the value, then name its unit.

>>> result("Cc1cccc(Cc2nc3c(Cc4ccccc4)[nH]c(-c4ccc(O)cc4)cn-3c2=O)c1 [3me-CTZ, 3me-coelenterazine]")
"122.8%"

Hello, I am looking for reported Luminescence capacity 10 secs. (%) with 19 kDa protein of Oplophorus luciferase (Oplophorus gracilirostris, UniProt Q9GV45) for COc1ccc(Cc2nc3c(Cc4ccccc4)[nH]c(-c4ccc(O)cc4)cn-3c2=O)cc1 [meo-CTZ, meo-coelenterazine] . Could you help? 108.6%

Hello, I am looking for reported Luminescence capacity 10 secs. (%) with 19 kDa protein of Oplophorus luciferase (Oplophorus gracilirostris, UniProt Q9GV45) for Cc1ccc(Cc2nc3c(Cc4ccccc4)[nH]c(-c4ccc(O)cc4)cn-3c2=O)cc1 [me-CTZ, me-coelenterazine] . Could you help? 82.7%

Hello, I am looking for reported Luminescence capacity 10 secs. (%) with 19 kDa protein of Oplophorus luciferase (Oplophorus gracilirostris, UniProt Q9GV45) for Oc1ccc(-c2cn3c(O)c(Cc4ccccc4)nc3c(Cc3ccccc3)n2)cc1 [h-CTZ, h-coelenterazine, reference compound] . Could you help? 110.2%
